# Tested Target: UniProtKB Q9NRS4
# Sequence (Q9NRS4 whole entry, the tested form may be a part): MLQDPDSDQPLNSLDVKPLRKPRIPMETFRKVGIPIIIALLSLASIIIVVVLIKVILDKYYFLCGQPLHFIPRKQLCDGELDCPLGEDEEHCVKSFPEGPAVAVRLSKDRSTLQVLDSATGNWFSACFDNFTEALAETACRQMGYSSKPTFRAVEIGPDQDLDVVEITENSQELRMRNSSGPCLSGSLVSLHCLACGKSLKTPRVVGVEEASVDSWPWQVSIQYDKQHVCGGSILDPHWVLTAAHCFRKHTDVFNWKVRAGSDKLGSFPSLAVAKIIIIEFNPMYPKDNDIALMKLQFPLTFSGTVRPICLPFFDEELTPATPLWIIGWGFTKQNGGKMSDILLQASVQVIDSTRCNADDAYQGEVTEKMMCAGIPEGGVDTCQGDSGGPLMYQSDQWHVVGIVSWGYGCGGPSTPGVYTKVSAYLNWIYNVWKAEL
# Assay Text: Inhibition of TMPRSS4 serine protease domain (Val 205 to Leu 437 residues) (unknown origin) expressed in Escherichia coli BL21 (DE3) at 30 uM using […]-Gln-Ala-Arg-7-amido-4-methylcoumarin hydrochloride substrate and measured for 5 mins at 5 mins intervals by fluorescence based assay relative to control
Listing of recorded inhibition by entry.
Field format: number, assumed %, no unit text.

compound_structure_string=O=C(Nc1cccc(C(F)(F)F)c1C(F)(F)F)c1cc(Cl)ccc1O readout_type=inhibition units_label=% observed_result=77
compound_structure_string=O=C(Nc1cc(C(F)(F)F)cc(C(F)(F)F)c1)c1cc(F)ccc1O readout_type=inhibition units_label=% observed_result=55
compound_structure_string=N#Cc1ccc(NC(=O)c2cc(Cl)ccc2O)c(Cl)c1 readout_type=inhibition units_label=% observed_result=92
compound_structure_string=NC(=O)c1ccc(O)c(C(=O)Nc2cc(C(F)(F)F)cc(C(F)(F)F)c2)c1 readout_type=inhibition units_label=% observed_result=21
compound_structure_string=Nc1ccc(O)c(C(=O)Nc2cc(C(F)(F)F)cc(C(F)(F)F)c2)c1 readout_type=inhibition units_label=% observed_result=30
compound_structure_string=O=C(Nc1cc(C(F)(F)F)cc(C(F)(F)F)c1)c1cc2ccccc2cc1O readout_type=inhibition units_label=% observed_result=96

Supply inhibition value. Item: `O=C(Nc1ccc(Cl)cn1)c1cc(Cl)ccc1O` 14

Please give measured inhibition of the following entry: `O=C(Nc1cc(C(F)(F)F)cc(C(F)(F)F)c1)c1ccccc1O` 20

Fill in inhibition for record `Cc1cc(Cl)cc(C(=O)Nc2cc(C(F)(F)F)cc(C(F)(F)F)c2)c1O` 78

Using known records, supply inhibition for `Cc1cc(C)cc(NC(=O)c2cc(Cl)ccc2O)c1` 44

Name the recorded inhibition of the item `O=C(Nc1nc(-c2ccccc2)cs1)c1cc(Cl)ccc1O` in your answer. 91

Note down inhibition recorded for `O=C(Nc1ccc(C(F)(F)F)c(C(F)(F)F)c1)c1cc(Cl)ccc1O` 59

Look up and state reported inhibition for `O=C(Nc1cc(C(F)(F)F)cc(C(F)(F)F)c1)c1cc(Cl)cc(Cl)c1O` 100

Cited source: ChEMBL document CHEMBL4417635
